Assignment: determine reported pKi for the given molecules.
# tested.target: human orexin 2 receptor (Homo sapiens (Human), UniProt O43614)
# Sequence (O43614 whole entry): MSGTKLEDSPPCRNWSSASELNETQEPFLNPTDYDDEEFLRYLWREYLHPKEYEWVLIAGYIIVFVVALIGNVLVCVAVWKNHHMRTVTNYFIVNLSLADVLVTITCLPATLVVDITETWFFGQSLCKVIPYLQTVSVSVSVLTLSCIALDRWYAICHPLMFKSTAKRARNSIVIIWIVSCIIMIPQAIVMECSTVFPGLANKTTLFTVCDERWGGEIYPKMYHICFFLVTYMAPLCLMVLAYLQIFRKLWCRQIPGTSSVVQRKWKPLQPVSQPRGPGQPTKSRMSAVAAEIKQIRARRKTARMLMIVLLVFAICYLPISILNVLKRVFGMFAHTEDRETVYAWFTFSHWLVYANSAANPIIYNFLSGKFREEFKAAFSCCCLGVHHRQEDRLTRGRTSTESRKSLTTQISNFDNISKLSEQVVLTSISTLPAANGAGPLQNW
# assay.comment: Human orexin 2 receptor radioligand binding (competitive, [3H]-EMPA, HEK293 cell preparations)
# conditions.used: hOX2 Ki (nm)
One number for each entry, as −log10 of the molar value.

These solved cases illustrate the format of a correct answer.
In [3]: df
Out[3]:
                                   molecule  observed_result
0  Cc1ccc(-n2nccn2)c(C(=O)N2C3CCC2C(COc2ccccn2)C3)n1 (racemic) [Example 4]             6.03
1  O=C(c1ccccc1-c1cccs1)N1[C@H]2CC[C@@H]1[C@@H](COc1ccc(F)cn1)C2 (single isomer, unassigned) [Example 12B]             8.30

Now turn to the next molecule.
Request: // pKi lookup, key: O=C(c1ccccc1-n1nccn1)N1C2CCC1C(Nc1cnc(C(F)(F)F)cn1)C2 (racemic) [Example 182]
Result: 5.96

----------
# tested.target: human orexin 2 receptor (Homo sapiens (Human), UniProt O43614)
# assay.comment: Human orexin 2 receptor radioligand binding (competitive, [3H]-EMPA, HEK293 cell preparations)
# conditions.used: human orexin 2 receptor, [3H]-EMPA competition binding; read-out: hOX2 Ki (nm)
Assignment: determine reported pKi for the given molecules.
Numbers only, as −log10 of the molar value.

These solved cases illustrate the format of a correct answer.
>>> df
                                   molecule  measure  observed_result
0  Cc1ccc(-c2ncccn2)c(C(=O)N2C3CCC2C(Nc2ncc(C(F)(F)F)cn2)C3)n1 (racemic)      pKi             5.48
1  O=C(c1cc(F)ccc1-n1nccn1)N1C2CCC1C(CNc1ccccn1)C2 (racemic)      pKi             5.60
2  CCOc1ccc(C)nc1C(=O)N1C2CCC1C(Nc1ncc(C(F)(F)F)cn1)C2 (single isomer, unassigned) [Example 224]      pKi             5.13

Now turn to the next molecule.
Request: // pKi lookup, key: COc1cccc(-c2ncccn2)c1C(=O)N1[C@@H]2CC[C@H]1[C@H](Nc1cnc(C(F)(F)F)cn1)C2
Result: 6.76

----------
# tested.target: human orexin 1 receptor (Homo sapiens (Human))
# Sequence (O43613 whole entry): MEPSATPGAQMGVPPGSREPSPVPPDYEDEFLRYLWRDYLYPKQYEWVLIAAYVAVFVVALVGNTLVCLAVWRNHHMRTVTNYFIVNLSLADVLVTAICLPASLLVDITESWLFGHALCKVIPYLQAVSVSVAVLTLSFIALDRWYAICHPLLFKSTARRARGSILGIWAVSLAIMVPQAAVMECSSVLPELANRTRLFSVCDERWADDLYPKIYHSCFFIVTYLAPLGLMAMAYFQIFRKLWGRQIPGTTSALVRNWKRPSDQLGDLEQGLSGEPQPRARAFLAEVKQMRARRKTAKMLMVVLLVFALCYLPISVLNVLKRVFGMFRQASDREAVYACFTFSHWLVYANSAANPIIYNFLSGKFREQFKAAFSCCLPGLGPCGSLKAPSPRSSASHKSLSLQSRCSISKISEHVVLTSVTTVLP
# assay.comment: Human orexin 1 receptor radioligand binding (competitive, [3H]-SB674042, CHO cell preparations)
# conditions.used: hOX1 Ki (nm)
Rule: Ki below 0.03 µM gives Satisfied. Equal to or above 0.03 µM gives Not satisfied.

These solved cases illustrate the format of a correct answer.
>>> print(df.to_string())
                                   compound  assigned_category
0  Cc1ccc(C(=O)N2C3CCC2C(COc2nccc(C(F)(F)F)n2)C3)c(-n2ccnn2)n1 (racemic)      Not satisfied
1  Cc1ccc(C(=O)N2C3CCC2C(COc2nccc(C(F)(F)F)n2)C3)c(-n2nccn2)n1 (racemic)      Not satisfied
2  Cc1ccc(-c2ncccn2)c(C(=O)N2[C@@H]3CC[C@H]2[C@H](COc2ccccn2)C3)n1 (single isomer, unassigned)          Satisfied

Request: Bench note: check whether Cc1ccc(-n2nccn2)c(C(=O)N2C3CCC2C(Nc2cnc(C(F)(F)F)cn2)C3)n1 (racemic) shows Ki below 0.03 µM
Result: Not satisfied

Request: Bench note: check whether O=C(c1ccccc1-c1cccs1)N1C2CCC1C(COc1ccc(F)cn1)C2 (racemic) shows Ki below 0.03 µM
Result: Satisfied

Request: Bench note: check whether O=C(c1ccccc1-c1cccs1)N1[C@H]2CC[C@@H]1[C@@H](COc1ccc(F)cn1)C2 (single isomer, unassigned) [Example 12B] shows Ki below 0.03 µM
Result: Satisfied

Request: Bench note: check whether Cc1cc(C)nc(OCC2CC3CCC2N3C(=O)c2cc(F)ccc2-c2ncccn2)n1 (racemic) shows Ki below 0.03 µM
Result: Not satisfied

Request: Bench note: check whether Cc1ccc(-c2ncccn2)c(C(=O)N2C3CCC2C(COc2ccccn2)C3)n1 (racemic) shows Ki below 0.03 µM
Result: Satisfied

----------
# tested.target: rat orexin 1 receptor (Rattus norvegicus)
# assay.comment: Rat orexin 1 receptor radioligand binding (competitive, [3H]-SB674042, HEK293 cell preparations)
# conditions.used: rat orexin 1 receptor, [3H]-SB674042 competition binding; read-out: rOX1 Ki (nm)
Assignment: determine reported pKi for the given molecules.
Answers are plain numbers, as −log10 of the molar value.

These solved cases illustrate the format of a correct answer.
>>> print(df.to_string())
                                   molecule  observed_result
0  Cc1cnn(-c2ccc(C)nc2C(=O)N2C3CCC2C(COc2ccccn2)C3)c1 (racemic) [Example 96]             7.15
1  Cc1ccc(N2CCCC2)c(C(=O)N2C3CCC2C(COc2ncc(F)cn2)C3)n1 (racemic) [Example 101]             6.19
2  Cc1cnc(C(=O)N2C3CCC2C(Nc2cnc(C(F)(F)F)cn2)C3)c(-n2nccn2)c1 (racemic) [Example 184]             6.72
3  Cc1coc(-c2ccc(C)nc2C(=O)N2C3CCC2C(COc2ccc(F)cn2)C3)n1 (racemic) [Example 177]             6.27
4  COc1cccc(-n2nccn2)c1C(=O)N1C2CCC1C(COc1ccc(F)cn1)C2 (racemic) [Example 108]             8.00

I would be grateful if you could provide pKi for each of the following entries.
1. O=C(c1ncc(Cl)cc1-n1nccn1)N1C2CCC1C(COc1ccc(F)cn1)C2 (racemic) [Example 112]
2. O=C(c1cc(CO)ccc1-n1nccn1)N1C2CCC1C(COc1ccc(F)cn1)C2 (racemic) [Example 126]

Result:
1. 6.32
2. 7.64

----------
# tested.target: human orexin 1 receptor (Homo sapiens (Human))
# assay.comment: Human orexin 1 receptor radioligand binding (competitive, [3H]-SB674042, CHO cell preparations)
# conditions.used: hOX1 Ki (nm)
Rule: Ki below 100 nM gives 1. Equal to or above 100 nM gives 0.

Request: Bench note: check whether Cc1cc(C)nc(NC2CC3CCC2N3C(=O)c2c(F)cccc2-n2nccn2)n1 (racemic) shows Ki below 100 nM
Result: 0

Request: Bench note: check whether O=C(c1ccccc1-n1nccn1)N1C2CCC1C(Nc1nc3cc(Cl)ccc3o1)C2 (racemic) shows Ki below 100 nM
Result: 1

Request: Bench note: check whether Cc1ccc(-n2nccn2)c(C(=O)N2C3CCC2C(COc2cc(C)nc(C(F)(F)F)n2)C3)c1 (racemic) shows Ki below 100 nM
Result: 1

Request: Bench note: check whether O=C(c1cc(F)ccc1-c1ncccn1)N1C2CCC1C(COc1ccc(F)cn1)C2 (racemic) shows Ki below 100 nM
Result: 1

Request: Bench note: check whether Cc1ccc(-n2nccn2)c(C(=O)N2C3CCC2C(COc2cccnc2)C3)n1 (racemic) shows Ki below 100 nM
Result: 0

----------
# tested.target: rat orexin 1 receptor (Rattus norvegicus, UniProt P56718)
# assay.comment: Rat orexin 1 receptor radioligand binding (competitive, [3H]-SB674042, HEK293 cell preparations)
# conditions.used: rat orexin 1 receptor, [3H]-SB674042 competition binding; read-out: rOX1 Ki (nm)
Assignment: determine reported Ki for the given molecules.

These solved cases illustrate the format of a correct answer.
In [3]: df
Out[3]:
                                   molecule                             tested_target  observed_result
0  COc1c(F)cccc1C(=O)N1C2CCC1C(Nc1cnc3ccccc3n1)C2 (single isomer, unassigned) [Example 231]  rat orexin 1 receptor (Rattus norvegicus, UniProt P56718)          > 10 µM
1  Cc1ccc(N2CCN(C)CC2)c(C(=O)N2C3CCC2C(COc2ccccn2)C3)n1 (racemic)  rat orexin 1 receptor (Rattus norvegicus, UniProt P56718)          > 10 µM
2  COc1cccc(-c2c(C)cnn2C)c1C(=O)N1[C@@H]2CC[C@H]1[C@H](Nc1cnc(C(F)(F)F)cn1)C2  rat orexin 1 receptor (Rattus norvegicus, UniProt P56718)          > 10 µM

Now turn to the next molecule.
Request: // Ki lookup, key: COc1c(F)cccc1C(=O)N1C2CCC1C(Nc1nc(C)cc(C)n1)C2 (stereo not shown)
Result: > 10 µM
